molecular target: Aβ1-42 peptide (Homo sapiens, UniProt P05067); assay: Thioflavin T spectrofluorescence assay (ThT-assay): inhibition of Aβ1-42 aggregation (% inhibition at 330 μM; IC50 from dilution series); settings: 24 h, read-out: Inhibition at 330 μM [%], ThT assay; 330 μM small molecule, 33 μM Aβ1-42 (10:1), 24 hrs at 37° C.; mean ± standard deviation of two independent experiments
Sequence (P05067 672-713 limits assumed): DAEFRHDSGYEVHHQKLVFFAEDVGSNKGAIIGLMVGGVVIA
Property Measured: inhibition at 330 µM (%)

[[record]]
molecule = "CNC1CCc2[nH]c3cc(Nc4ccc(OC)c(OC)c4)ccc3c2C1 (stereo not drawn)"
property_measured = "inhibition at 330 µM"
value_reported = 100

[[record]]
molecule = "COC1CCc2c(c3ccc(Nc4ccc5c(c4)OCO5)nc3n2C)C1 (stereo not drawn)"
property_measured = "inhibition at 330 µM"
value_reported = 91.7

[[record]]
molecule = "CNC1CCc2c(c3cc(Nc4ccc(F)c(OC)c4)cnc3n2C)C1 (stereo not drawn)"
property_measured = "inhibition at 330 µM"
value_reported = 69.3

[[record]]
molecule = "c1ccc(CNc2ccc3cc[nH]c3n2)nc1"
property_measured = "inhibition at 330 µM"
value_reported = 47.4

[[record]]
molecule = "Cn1c2c(c3cc(Nc4ccc(F)c(F)c4)ccc31)CN(CCCCS(C)(=O)=O)CC2"
property_measured = "inhibition at 330 µM"
value_reported = 85


[a] CN1CCC(c2c[nH]c3cc(Nc4ccc5c(c4)CNCC5)ccc23)CC1
[b] Cn1c2c(c3ccc(Nc4ccc(F)c(F)c4)cc31)CN(CCCCS(C)(=O)=O)CC2
Q: // select label with min value of measured inhibition at 330 µM from [ a , b ] Reply with the label of the item you choose.
Result: b

[P] CNC1CCc2[nH]c3ccc(Nc4ccc(OC)c(F)c4)cc3c2C1 (stereo not drawn)
[Q] CN1CCc2ccc(Nc3ccc4c(c3)c3c(n4C)CCS(=O)(=O)C3)cc2C1
Q: // select label with min value of measured inhibition at 330 µM from [ P , Q ] Reply with the label of the item you choose.
Result: Q
(Q: 50.2%, P: 86.8%)
